Reference source: the supplement of paper PMC9170038

Record form. Attribute: apparent KD of MS2 coat protein. Fill in for each entry.
Test system: MS2 coat protein
Experiment: apparent KD of MS2 coat protein; higher = weaker reporter binding
Details: Eterna round: R107; input ligand: none
Kindly provide the numeric value in µM only, without the unit symbol.

Give apparent KD of MS2 coat protein; test system MS2 coat protein; sequence GGCGUCGGGCGAAGGAGCGUGAAGACAUGAGGAUCACCCAUGUAGAGGCCCGGACAGGGUUCGCAGGUAGGUCGCGCGCGGUGCC [#1 Same State - Arginine B Attempt #7 (HarryS)]
0.0137

Consider the sequence GUUAUAGACGGAAGGAGCGCGACCACAUGAGGAUCACCCAUGUAUUGUGUUGGUAAUAGGUCGCAGGUAGGUCGCCGGUUAAUGA [#04 Same State - Arginine B] tested on MS2 coat protein; state its apparent KD of MS2 coat protein.
0.0366

Please report apparent KD of MS2 coat protein with MS2 coat protein for item `UGUAUGUGAUCUGAUACCAGUCCAACUGGUAAAACCUGAGGAUCACCCUGGUAAAAUUGGGACCCUUGGCAGCAGAUCGCAUACU` .
0.35

Jot down apparent KD of MS2 coat protein (MS2 coat protein) of AAUAAACAUGAGGAUCACCCAUGUAUGGAAGGAGCGGUAAAUAAACCAGGUAGGUCGCCAGUGUGAGGGUCAUCUAUGUAAUAAA [Exclusion - Arginine A (Freestyle 1)] .
0.032
